These entries and their values trace back to ChEMBL document CHEMBL5291721.

- Experimental system: Adenosine receptor A3 (Homo sapiens, UniProt P0DMS8); further: assay procedure not described here
- Sequence (P0DMS8 whole entry): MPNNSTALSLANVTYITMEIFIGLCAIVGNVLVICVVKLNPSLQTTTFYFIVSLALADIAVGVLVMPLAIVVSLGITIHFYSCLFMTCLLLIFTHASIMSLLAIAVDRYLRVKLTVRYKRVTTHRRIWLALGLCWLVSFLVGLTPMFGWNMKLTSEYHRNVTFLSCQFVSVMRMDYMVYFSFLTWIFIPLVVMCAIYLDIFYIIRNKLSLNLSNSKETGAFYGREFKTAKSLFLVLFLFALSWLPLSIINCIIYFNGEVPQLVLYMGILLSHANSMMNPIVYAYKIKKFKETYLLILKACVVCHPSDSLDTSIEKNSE
Examples of compounds with documented AC50 follow.

Lab request: please report AC50 under test system Adenosine receptor A3 (Homo sapiens, UniProt P0DMS8) for "O=C(O)c1cccc(-c2noc(-c3ccccc3F)n2)c1"
> 30 µM

Lab request: please report AC50 under test system Adenosine receptor A3 (Homo sapiens, UniProt P0DMS8) for CC(C)NNC(=O)c1ccncc1 [IPRONIAZID]; further: assay procedure not described here
> 30 µM

Lab request: please report AC50 under test system Adenosine receptor A3 (Homo sapiens, UniProt P0DMS8) for O=C1CCC(N2C(=O)c3ccccc3C2=O)C(=O)N1 (configuration not stated) [THALIDOMIDE]; further: assay procedure not described here
> 30 µM

Lab request: please report AC50 under test system Adenosine receptor A3 (Homo sapiens, UniProt P0DMS8) for O=C(Nc1ccccc1)OCC(CN1CCCCC1)OC(=O)Nc1ccccc1 (configuration not stated) [DIPERODON]; further: assay procedure not described here
> 30 µM

Lab request: please report AC50 under test system Adenosine receptor A3 (Homo sapiens, UniProt P0DMS8) for CC(=O)OCC(=O)[C@@]12OC3(CCCC3)O[C@@H]1C[C@H]1[C@@H]3CCC4=CC(=O)C=C[C@]4(C)[C@@]3(F)[C@@H](O)C[C@@]12C [AMCINONIDE]; further: assay procedure not described here
> 10 µM

Lab request: please report AC50 under test system Adenosine receptor A3 (Homo sapiens, UniProt P0DMS8) for Cc1c(Cl)cccc1Nc1ccccc1C(=O)O [TOLFENAMIC ACID]; further: assay procedure not described here
12 µM

Lab request: please report AC50 under test system Adenosine receptor A3 (Homo sapiens, UniProt P0DMS8) for NC(=O)c1ncn([C@@H]2O[C@H](CO)[C@@H](O)[C@H]2O)c1O [MIZORIBINE]; further: assay procedure not described here
> 30 µM

----------
Reported AC50 for target or system UniProt P08913, by entry.
Sequence (P08913 whole entry): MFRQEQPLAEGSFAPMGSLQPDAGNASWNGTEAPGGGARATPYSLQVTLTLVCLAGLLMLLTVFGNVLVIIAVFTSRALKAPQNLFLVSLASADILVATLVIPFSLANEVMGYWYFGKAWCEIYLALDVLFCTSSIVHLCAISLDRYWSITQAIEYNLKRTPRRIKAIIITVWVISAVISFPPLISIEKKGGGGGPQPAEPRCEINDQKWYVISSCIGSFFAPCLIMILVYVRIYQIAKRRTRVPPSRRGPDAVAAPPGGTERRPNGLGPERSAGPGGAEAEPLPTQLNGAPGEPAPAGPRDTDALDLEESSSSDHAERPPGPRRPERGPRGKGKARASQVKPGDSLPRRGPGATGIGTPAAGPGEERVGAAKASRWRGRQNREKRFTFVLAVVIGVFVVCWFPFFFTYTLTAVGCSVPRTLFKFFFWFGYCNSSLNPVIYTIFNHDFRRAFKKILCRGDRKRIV

Field: example entries. Status: answers known.
Lab request: please report AC50 under test system UniProt P08913 for "O=C1CN=C(c2ccccc2)c2c(sc3c2CCCC3)N1"
23.9 µM

Lab request: please report AC50 under test system UniProt P08913 for "Nc1nc2ccc(OC(F)(F)F)cc2s1"
> 30 µM

---
Lab request: please report AC50 under test system UniProt P08913 for "CN(C)C(=O)Oc1ccc[n+](C)c1"
> 30 µM

Lab request: please report AC50 under test system UniProt P08913 for CC(=O)OC(C)C[N+](C)(C)C (stereo not given)
> 30 µM

Lab request: please report AC50 under test system UniProt P08913 for "COc1cc(Nc2c(C#N)cnc3cc(OCCCN4CCN(C)CC4)c(OC)cc23)c(Cl)cc1Cl"
7.58 µM

----------
Reported AC50 for target or system D(4) dopamine receptor (Homo sapiens, UniProt P21917), by entry. Further: assay procedure not described here.

Lab request: please report AC50 under test system D(4) dopamine receptor (Homo sapiens, UniProt P21917) for "CN[C@@H](C)[C@H](O)c1ccccc1"
> 10 µM

Lab request: please report AC50 under test system D(4) dopamine receptor (Homo sapiens, UniProt P21917) for "CN(C)CCCN1c2ccccc2Sc2ccccc21"
0.551 µM

---
Lab request: please report AC50 under test system D(4) dopamine receptor (Homo sapiens, UniProt P21917) for "O=C(O)CCCc1ccccc1"
> 10 µM

Lab request: please report AC50 under test system D(4) dopamine receptor (Homo sapiens, UniProt P21917) for CC(C)NCC(O)COc1ccc(COCCOC(C)C)cc1 (stereo not given); further: assay procedure not described here
> 10 µM

Lab request: please report AC50 under test system D(4) dopamine receptor (Homo sapiens, UniProt P21917) for O=C1CCC(N2C(=O)c3ccccc3C2=O)C(=O)N1 (stereo not given) [THALIDOMIDE]; further: assay procedure not described here
> 10 µM

----------
Examples of molecules with documented AC50 follow.
- Experimental system: Muscarinic acetylcholine receptor M1 (Homo sapiens, UniProt P11229)
- Sequence (P11229 whole entry): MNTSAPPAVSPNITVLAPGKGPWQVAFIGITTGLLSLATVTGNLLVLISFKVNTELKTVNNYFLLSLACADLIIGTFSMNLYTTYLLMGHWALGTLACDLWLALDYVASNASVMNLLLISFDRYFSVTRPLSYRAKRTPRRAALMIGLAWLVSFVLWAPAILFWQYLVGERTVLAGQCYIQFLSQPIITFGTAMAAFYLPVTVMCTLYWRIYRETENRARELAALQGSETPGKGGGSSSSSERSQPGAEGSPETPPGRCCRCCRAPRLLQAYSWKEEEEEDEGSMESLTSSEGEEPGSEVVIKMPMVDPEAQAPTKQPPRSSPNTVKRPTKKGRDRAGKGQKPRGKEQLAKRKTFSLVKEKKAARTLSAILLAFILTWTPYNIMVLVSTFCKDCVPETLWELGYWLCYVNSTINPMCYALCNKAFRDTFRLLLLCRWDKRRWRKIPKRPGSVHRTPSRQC
- Format: functional, cell-based

Field: example entries. Status: answers known.
Lab request: please report AC50 under test system Muscarinic acetylcholine receptor M1 (Homo sapiens, UniProt P11229) for O=C(NC[C@H]1CN(c2ccc(N3CCOCC3=O)cc2)C(=O)O1)c1ccc(Cl)s1 [RIVAROXABAN]
> 3 µM

Lab request: please report AC50 under test system Muscarinic acetylcholine receptor M1 (Homo sapiens, UniProt P11229) for O=C1c2ccccc2C(=O)C1C(=O)C(c1ccccc1)c1ccccc1 [DIPHENADIONE]
> 3 µM

Lab request: please report AC50 under test system Muscarinic acetylcholine receptor M1 (Homo sapiens, UniProt P11229) for C1N2CN3CN1CN(C2)C3 [METHENAMINE]
> 30 µM

Next:
Lab request: please report AC50 under test system Muscarinic acetylcholine receptor M1 (Homo sapiens, UniProt P11229) for COc1ccc(-c2cc(=O)c3c(O)cc(O[C@@H]4O[C@H](CO[C@@H]5O[C@@H](C)[C@H](O)[C@@H](O)[C@H]5O)[C@@H](O)[C@H](O)[C@H]4O)cc3o2)cc1O [DIOSMIN]
> 30 µM

----------
Examples of compounds with documented AC50 follow.
- Experimental system: UniProtKB P06401
- Sequence (P06401 whole entry): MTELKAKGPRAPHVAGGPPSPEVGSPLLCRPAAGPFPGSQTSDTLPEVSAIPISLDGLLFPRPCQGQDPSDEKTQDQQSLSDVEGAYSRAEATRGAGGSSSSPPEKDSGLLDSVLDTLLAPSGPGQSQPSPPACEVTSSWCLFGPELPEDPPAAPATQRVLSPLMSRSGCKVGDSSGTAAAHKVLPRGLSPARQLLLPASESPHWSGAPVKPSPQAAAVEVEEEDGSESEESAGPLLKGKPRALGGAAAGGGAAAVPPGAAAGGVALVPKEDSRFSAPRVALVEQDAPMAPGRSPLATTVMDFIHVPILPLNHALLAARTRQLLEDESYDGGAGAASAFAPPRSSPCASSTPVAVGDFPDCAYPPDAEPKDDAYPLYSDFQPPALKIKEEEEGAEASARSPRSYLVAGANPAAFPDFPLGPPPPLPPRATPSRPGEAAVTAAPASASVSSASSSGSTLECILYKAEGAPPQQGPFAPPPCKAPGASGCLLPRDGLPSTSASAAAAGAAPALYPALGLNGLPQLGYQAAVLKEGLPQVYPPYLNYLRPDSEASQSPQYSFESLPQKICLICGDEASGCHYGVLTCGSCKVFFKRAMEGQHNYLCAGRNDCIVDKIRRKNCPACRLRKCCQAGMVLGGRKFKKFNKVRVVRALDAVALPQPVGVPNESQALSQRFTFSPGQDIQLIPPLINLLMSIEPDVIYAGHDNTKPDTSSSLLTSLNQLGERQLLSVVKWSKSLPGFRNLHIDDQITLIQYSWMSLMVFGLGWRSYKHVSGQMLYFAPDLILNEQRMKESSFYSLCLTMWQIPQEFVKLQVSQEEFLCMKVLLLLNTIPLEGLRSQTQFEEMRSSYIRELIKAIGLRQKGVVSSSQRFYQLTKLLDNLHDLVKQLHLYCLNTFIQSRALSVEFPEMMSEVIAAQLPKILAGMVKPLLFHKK
- Assay type: functional

Field: example entries. Status: answers known.
Entry CC(C)NCC1CCc2cc(CO)c([N+](=O)[O-])cc2N1 (centres undefined) has what AC50?
> 10 µM

Entry C#CC1(OC(N)=O)CCCCC1 [ETHINAMATE] has what AC50?
> 10 µM

Entry "COC(=O)N[C@H](C(=O)N[C@@H](Cc1ccccc1)[C@@H](O)CN(Cc1ccc(-c2ccccn2)cc1)NC(=O)[C@@H](NC(=O)OC)C(C)(C)C)C(C)(C)C" has what AC50?
> 30 µM

Entry COC(=O)C1=C(C)NC(C)=C(C(=O)OC(C)C)C1c1cccc2nonc12 (centres undefined) has what AC50?
> 30 µM

---
Entry CN1C(=O)CC(c2ccccc2)C1=O (centres undefined) [PHENSUXIMIDE] has what AC50?
> 10 µM

Entry "CC(C)NNC(=O)c1ccncc1" has what AC50?
> 30 µM

Entry Cc1cccc(C)c1NC(=O)C1CCCCN1C (centres undefined) [MEPIVACAINE] has what AC50?
> 30 µM

----------
Reported AC50 for target or system UniProtKB P07550, by entry.
Sequence (P07550 whole entry): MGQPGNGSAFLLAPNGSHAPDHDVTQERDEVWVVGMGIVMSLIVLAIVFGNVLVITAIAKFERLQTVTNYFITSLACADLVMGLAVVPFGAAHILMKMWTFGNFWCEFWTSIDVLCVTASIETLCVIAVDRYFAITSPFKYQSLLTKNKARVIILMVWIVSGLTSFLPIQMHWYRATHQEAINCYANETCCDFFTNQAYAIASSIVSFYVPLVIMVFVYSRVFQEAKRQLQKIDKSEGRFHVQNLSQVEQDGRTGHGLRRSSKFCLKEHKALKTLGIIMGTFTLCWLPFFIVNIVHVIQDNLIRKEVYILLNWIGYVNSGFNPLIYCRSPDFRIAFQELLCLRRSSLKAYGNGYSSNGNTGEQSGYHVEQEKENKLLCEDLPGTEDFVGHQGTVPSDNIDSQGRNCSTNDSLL

Field: example entries. Status: answers known.
Entry O=C(C[S+]([O-])C(c1ccccc1)c1ccccc1)NO (stereo not given) has what AC50?
> 30 µM

Entry COc1ccc(C(=O)NCc2ccc(OCCN(C)C)cc2)cc1OC [ITOPRIDE] has what AC50?
> 30 µM

Entry CC(C)C(=O)Nc1ccc([N+](=O)[O-])c(C(F)(F)F)c1 [FLUTAMIDE] has what AC50?
> 10 µM

Entry "N[C@@H](CSCC(=O)O)C(=O)O" has what AC50?
> 30 µM

Entry "COc1ccc(C(=O)N2CCN(c3ccc4c(c3)CCC(=O)N4)CC2)cc1OC" has what AC50?
> 30 µM

---
Entry "CCOC(=O)[C@H](CCc1ccccc1)N[C@@H](C)C(=O)N1CCC[C@H]1C(=O)O" has what AC50?
> 10 µM

Entry CCN(CC)CCNC(=O)c1cc(Cl)c(N)cc1OC [METOCLOPRAMIDE] has what AC50?
> 10 µM

Entry CN1C(=O)CC(C)(c2ccccc2)C1=O (stereo not given) [METHSUXIMIDE] has what AC50?
> 10 µM

Entry NC(CO)C(=O)NNCc1ccc(O)c(O)c1O (stereo not given) [BENSERAZIDE] has what AC50?
> 10 µM

Entry "CC(=O)N[C@H]1[C@H]([C@H](O)[C@H](O)CO)OC(C(=O)O)=C[C@@H]1N=C(N)N" has what AC50?
> 30 µM

----------
- Experimental system: Muscarinic acetylcholine receptor M1 (Homo sapiens)
- Format: functional, cell-based
Property name: AC50

Field: example entries. Status: answers known.
Entry "Nc1nc(-n2cc(C(=O)O)c(=O)c3cc(F)c(N4CC(O)C4)c(Cl)c32)c(F)cc1F" has what AC50?
> 30 µM

Entry "O=C(O)c1cccc(-c2noc(-c3ccccc3F)n2)c1" has what AC50?
> 30 µM

Entry "O=C1c2ccccc2C(=O)C1C(=O)C(c1ccccc1)c1ccccc1" has what AC50?
7.26 µM

Entry "CN1CCC2=C(C1)c1ccccc1Cc1ccccc12" has what AC50?
> 30 µM

Entry CC(=O)OC(C)C[N+](C)(C)C (centres undefined) has what AC50?
0.0079 µM

---
Entry "CCN(CC)CCNc1ccc(C)c2sc3ccccc3c(=O)c12" has what AC50?
> 30 µM

Entry CCC1C(C)=NN=C(c2ccc(OC)c(OC)c2)c2cc(OC)c(OC)cc21 (centres undefined) has what AC50?
> 30 µM

Entry C[C@@H]1C[C@H]2[C@@H]3C[C@H](F)C4=CC(=O)C=C[C@]4(C)[C@@]3(F)[C@@H](O)C[C@]2(C)[C@@]1(O)C(=O)COC(=O)C(C)(C)C [FLUMETHASONE PIVALATE] has what AC50?
> 30 µM

Entry "O=C(c1ccc(F)c(F)c1Nc1ccc(I)cc1F)N1CC(O)([C@@H]2CCCCN2)C1" has what AC50?
17.4 µM

Entry "CCC(=O)c1c(O)cc(O)cc1O" has what AC50?
> 30 µM
